- Test protocol: CHI Log D procedure
- Type: physicochemical
- Test context: pH 7.4, CHI Log D
Metric: chromatographic logD
Could you respond with only the numeric value?

I would be grateful if you could share the reported chromatographic logD for CC(=O)N1CCC[C@]12CC=CCCCC1(CCCC=CCCCOC(=O)N3CC[C@@](C(=O)N[C@@H](Cc4ccsc4)C(=O)N[C@@H](Cc4csc5ccccc45)C(=O)N[C@@H](CCC(N)=O)C(=O)N[C@@H](C)C(N)=O)(C3)NC(=O)[C@H](CC(N)=O)NC(=O)[C@H](Cc3ccccc3)NC(=O)[C@H](C)NC(=O)[C@H](C)NC(=O)[C@H](CC(=O)O)NC(=O)[C@H](CC(=O)O)NC1=O)NC(=O)[C@H](CC(C)(C)C)NC(=O)[C@H](CC(=O)O)NC2=O (stereo partly drawn) .
2.03

One more molecule: CC(=O)N1CCC[C@]12CC=CCCCC1(CCCC=CCCCCCC[C@@](C)(C(=O)N[C@@H](Cc3cccc(F)c3)C(=O)N[C@@H](Cc3csc4ccccc34)C(=O)N[C@@H](CCC(N)=O)C(N)=O)NC(=O)[C@H](C(C)C)NC(=O)[C@H](Cc3ccccc3)NC(=O)[C@H](C)NC(=O)[C@H](C)NC(=O)[C@H](Cc3cn(C)cn3)NC(=O)[C@H](CC(=O)O)NC1=O)NC(=O)[C@H](C)NC(=O)[C@H](CC(=O)O)NC2=O (stereo partly drawn)
2.87

Same read-out for CC(=O)N1CCC[C@]12CC=CCCCC1(CCCC=CCCCOC(=O)N3CC[C@@](C(=O)N[C@@H](Cc4ccccc4F)C(=O)N[C@@H](Cc4csc5ccccc45)C(=O)N[C@@H](CCC(N)=O)C(N)=O)(C3)NC(=O)[C@H]([C@@H](C)O)NC(=O)[C@H](Cc3ccccc3)NC(=O)[C@H](C)NC(=O)[C@H](C)NC(=O)[C@H](CC(=O)O)NC(=O)[C@H](CC(=O)O)NC1=O)NC(=O)[C@H](CC(C)(C)C)NC(=O)[C@H](CC(=O)O)NC2=O (stereo partly drawn) ?
2.05

* * *

Solubility by entry:
- Test protocol: Solubility in PBS
- Assay type: physicochemical
- Test context: Solubility (uM)
Report the value in µM with no unit label.

Known results for compounds:
# Compound, Solubility (µM)
records = [
    ("CC(=O)N1CCC[C@]12CC=CCCCC1(CCCC=CCCCOC(=O)N3CC[C@@](C(=O)N[C@@H](Cc4ccsc4)C(=O)N[C@@H](Cc4csc5ccccc45)C(=O)N[C@@H](CCC(N)=O)C(N)=O)(C3)NC(=O)[C@H]([C@@H](C)O)NC(=O)[C@H](Cc3ccccc3)NC(=O)[C@H](C)NC(=O)[C@H](C)NC(=O)[C@H](CC(=O)O)NC(=O)[C@H](CC(=O)O)NC1=O)NC(=O)[C@H](CC(C)(C)C)NC(=O)[C@H](CC(=O)O)NC2=O (some centres unmarked)", 36),
    ("CC(=O)N1CCC[C@]12CC=CCCCC1(CCCC=CCCCCCC[C@@](C)(C(=O)N[C@@H](Cc3ccccc3)C(=O)N[C@@H](Cc3csc4ccccc34)C(=O)N[C@H](CCC(N)=O)C(N)=O)NC(=O)[C@H](CCC(N)=O)NC(=O)[C@H](Cc3ccccc3)NC(=O)[C@H](C)NC(=O)[C@H](C)NC(=O)[C@H](CCC(=O)O)NC(=O)[C@H](CC(=O)O)NC1=O)NC(=O)[C@H](C)NC(=O)[C@H](CC(=O)O)NC2=O (some centres unmarked)", 44),
    ("CC(=O)N1CCC[C@]12CC=CCCCC1(CCCC=CCCCOC(=O)N3CC[C@@](C(=O)N[C@@H](Cc4ccsc4)C(=O)N[C@@H](Cc4csc5ccccc45)C(=O)N[C@H](Cc4c[nH]cn4)C(N)=O)(C3)NC(=O)[C@H](CC(N)=O)NC(=O)[C@H](Cc3ccccc3)NC(=O)[C@H](C)NC(=O)[C@H](C)NC(=O)[C@H](CC(=O)O)NC(=O)[C@H](CC(=O)O)NC1=O)NC(=O)[C@H](CC(C)(C)C)NC(=O)[C@H](CC(=O)O)NC2=O (some centres unmarked)", 28),
]

Can you look up the measured Solubility of CC(=O)N1CCC[C@]12CC=CCCCC1(CCCC=CCCCOC(=O)N3CC[C@@](C(=O)N[C@@H](Cc4cccc5ccccc45)C(=O)N[C@@H](Cc4csc5ccccc45)C(=O)N[C@@H](Cc4c[nH]cn4)C(N)=O)(C3)NC(=O)[C@H](CC(N)=O)NC(=O)[C@H](Cc3ccccc3)NC(=O)[C@H](C)NC(=O)[C@H](C)NC(=O)[C@H](CC(=O)O)NC(=O)[C@H](CC(=O)O)NC1=O)NC(=O)[C@H](CC(C)(C)C)NC(=O)[C@H](CC(=O)O)NC2=O (some centres unmarked) for me?
40

Now try CC(=O)N1CCC[C@]12CC=CCCCC1(CCCC=CCCCCCC[C@@](C)(C(=O)N[C@@H](Cc3ccccc3)C(=O)N[C@@H](Cc3csc4ccccc34)C(=O)N[C@@H](CCC(N)=O)C(N)=O)NC(=O)[C@H](CCC(N)=O)NC(=O)[C@H](Cc3ccccc3)NC(=O)[C@H](C)NC(=O)[C@H](C)NC(=O)[C@H](CCC(=O)O)NC(=O)[C@H](CC(=O)O)NC1=O)NC(=O)[C@H](C)NC(=O)[C@H](CC(=O)O)NC2=O (some centres unmarked) .
28
